Cited source for all entries: paper PMC11367390

Quick reference: inhibition at 25 µM of the listed items.
system.tested: α-Glucosidase from Saccharomyces cerevisiae (Saccharomyces cerevisiae, UniProt P53341)
Sequence (P53341 whole entry): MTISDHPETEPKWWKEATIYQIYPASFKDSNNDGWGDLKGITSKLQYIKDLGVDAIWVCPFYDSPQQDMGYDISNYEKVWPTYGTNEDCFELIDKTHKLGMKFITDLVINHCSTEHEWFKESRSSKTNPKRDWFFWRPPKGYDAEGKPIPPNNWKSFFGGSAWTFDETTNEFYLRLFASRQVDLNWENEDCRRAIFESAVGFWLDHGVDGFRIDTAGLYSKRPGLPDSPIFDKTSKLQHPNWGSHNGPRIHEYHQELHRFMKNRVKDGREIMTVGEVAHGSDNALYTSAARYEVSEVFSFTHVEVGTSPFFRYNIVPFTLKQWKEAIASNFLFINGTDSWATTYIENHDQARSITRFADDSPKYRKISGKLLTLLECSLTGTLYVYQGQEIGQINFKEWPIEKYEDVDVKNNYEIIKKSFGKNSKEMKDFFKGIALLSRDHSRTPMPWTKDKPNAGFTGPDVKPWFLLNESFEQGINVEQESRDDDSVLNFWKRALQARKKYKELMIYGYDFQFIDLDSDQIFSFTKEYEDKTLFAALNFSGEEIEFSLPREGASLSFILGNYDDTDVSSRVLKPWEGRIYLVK
procedure.details: In vitro α-glucosidase inhibition study
conditions: pH 6.8, read-out: Inhibition at 25 μM (%)
Provide only the numeric value, understood in %.

Below, 3 molecules whose answers are already recorded.
For the molecule O=c1c(-c2ccc(OC(F)(F)F)cc2)coc2c(Cn3cnc4ccccc43)c(O)ccc12 [Compound 10h] , report inhibition at 25 µM.
99.1

For the molecule O=c1c(-c2ccc(OC(F)(F)F)cc2)coc2cc(O)ccc12 [Compound 6j, 7-hydroxy-4′-trifluoromethoxyisoflavone] , report inhibition at 25 µM.
39

For the molecule Cc1cc(=O)oc2c(Cn3cnc4ccccc43)c(O)ccc12 [Compound 10b] , report inhibition at 25 µM.
69.3

Shifting focus to the molecule that follows.
For the molecule Cc1cc(C)n(Cc2c(O)ccc3c(=O)c(-c4ccc(OC(F)(F)F)cc4)coc23)n1 [Compound 12i] , report inhibition at 25 µM.
94
